biological target: GTPase KRas (Homo sapiens, UniProt P01116, G12D); experiment: Binding affinity to biotinylated KRAS G12D mutant (unknown origin) incubated for 120 mins by SPR analysis
Sequence (P01116 whole entry G12D): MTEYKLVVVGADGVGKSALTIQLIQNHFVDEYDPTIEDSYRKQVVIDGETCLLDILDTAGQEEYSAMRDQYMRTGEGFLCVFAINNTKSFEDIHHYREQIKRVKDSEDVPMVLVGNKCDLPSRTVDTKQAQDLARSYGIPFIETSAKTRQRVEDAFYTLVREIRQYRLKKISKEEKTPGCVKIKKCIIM
Positions of bridges follow the written chain, without caps; N, C: chain ends. Non-standard residues stand in square brackets, D forms with d. Residues, ends and D or L forms follow the SMILES beside them. *: point of attachment. hPhe(3-Cl-4-CF3) = N[C@@H](CCc1ccc(C(F)(F)F)c(Cl)c1)C(=O)O; NMeCha = CN[C@@H](CC1CCCCC1)C(=O)O; NEtLeu = CCN[C@@H](CC(C)C)C(=O)O; NMeChg = CN[C@H](C(=O)O)C1CCCCC1; NMeD = CN[C@@H](CC(=O)O)C(=O)O; Piperidide = C1CCN(*)CC1; Ac5c = NC1(C(=O)O)CCCC1; Sar = CNCC(=O)O
Value Type: Kd

Q: Identify measured Kd corresponding to CC[C@H](C)[C@@H]1NC(=O)[C@H](CC(C)C)N(CC)C(=O)C[C@@H](C(=O)N2CCCCC2)N(C)C(=O)[C@H](C2CCCCC2)N(C)C(=O)C2(CCCC2)NC(=O)[C@@H]2CCCN2C(=O)[C@H](CCc2ccc(C(F)(F)F)c(Cl)c2)NC(=O)CN(C)C(=O)[C@H](CC2CCCCC2)N(C)C(=O)CN(C)C(=O)CN(C)C1=O ([NEtLeu]I[Sar][Sar][NMeCha][Sar][hPhe(3-Cl-4-CF3)]P[Ac5c][NMeChg][NMeD]-Piperidide; lactam N-11)
A: 1.1 nM

----------
Listed here: items and their measured IC50.
assay: Inhibition of biotin-tagged KRAS G12D mutant (unknown origin) to recombinant His-tagged SOS1 (unknown origin) protein-protein interaction incubated for 120 mins by AlphaLISA method; design: species or system Homo sapiens
Positions of bridges follow the written chain, without caps; N, C: chain ends. Non-standard residues stand in square brackets, D forms with d. Residues, ends and D or L forms follow the SMILES beside them. *: point of attachment. hPhe(3-Cl-4-CF3) = N[C@@H](CCc1ccc(C(F)(F)F)c(Cl)c1)C(=O)O; NMeAla(cPent) = CN[C@@H](CC1CCCC1)C(=O)O; NMeCha = CN[C@@H](CC1CCCCC1)C(=O)O; NMeChg = CN[C@H](C(=O)O)C1CCCCC1; NMeD = CN[C@@H](CC(=O)O)C(=O)O; NMeL = CN[C@@H](CC(C)C)C(=O)O; NMeV = CN[C@H](C(=O)O)C(C)C; NMeA = CN[C@@H](C)C(=O)O; Piperidide = C1CCN(*)CC1; Ac5c = NC1(C(=O)O)CCCC1; Aze = O=C(O)[C@@H]1CCN1; Sar = CNCC(=O)O
Respond numerically; units are nM and should not be typed.

CC[C@H](C)[C@@H]1NC(=O)[C@H](CC2CCCC2)N(C)C(=O)C[C@@H](C(=O)N2CCCCC2)N(C)C(=O)[C@H](C(C)C)N(C)C(=O)C2(CCCC2)NC(=O)[C@@H]2CCCN2C(=O)[C@H](CCc2ccc(C(F)(F)F)c(Cl)c2)NC(=O)CN(C)C(=O)[C@H](CC2CCCCC2)N(C)C(=O)CN(C)C(=O)CN(C)C1=O ([NMeAla(cPent)]I[Sar][Sar][NMeCha][Sar][hPhe(3-Cl-4-CF3)]P[Ac5c][NMeV][NMeD]-Piperidide; lactam N-11)
13
CC[C@H](C)[C@@H]1NC(=O)[C@H](CC(C)C)N(C)C(=O)C[C@@H](C(=O)N2CCCCC2)N(C)C(=O)[C@H](CC(C)C)N(C)C(=O)C2(CCCC2)NC(=O)[C@@H]2CCCN2C(=O)[C@H](CCc2ccc(C(F)(F)F)c(Cl)c2)NC(=O)CN(C)C(=O)[C@H](CC2CCCCC2)N(C)C(=O)[C@@H]2CCN2C(=O)[C@H](C)N(C)C1=O ([NMeL]I[NMeA][Aze][NMeCha][Sar][hPhe(3-Cl-4-CF3)]P[Ac5c][NMeL][NMeD]-Piperidide; lactam N-11)
3.9
CC[C@H](C)[C@@H]1NC(=O)[C@H](CC(C)C)N(C)C(=O)C[C@@H](C(=O)N2CCCCC2)N(C)C(=O)[C@H](C(C)C)N(C)C(=O)C2(CCCC2)NC(=O)[C@@H]2CCCN2C(=O)[C@H](CCc2ccc(C(F)(F)F)c(Cl)c2)NC(=O)CN(C)C(=O)[C@H](CC2CCCCC2)N(C)C(=O)[C@@H]2CCN2C(=O)[C@H](C)N(C)C1=O ([NMeL]I[NMeA][Aze][NMeCha][Sar][hPhe(3-Cl-4-CF3)]P[Ac5c][NMeV][NMeD]-Piperidide; lactam N-11)
4.1

Q: Identify measured IC50 corresponding to CC[C@H](C)[C@@H]1NC(=O)[C@H](C2CCCCC2)N(C)C(=O)C[C@@H](C(=O)N2CCCCC2)N(C)C(=O)[C@H](C(C)C)N(C)C(=O)C2(CCCC2)NC(=O)[C@@H]2CCCN2C(=O)[C@H](CCc2ccc(C(F)(F)F)c(Cl)c2)NC(=O)CN(C)C(=O)[C@H](CC2CCCCC2)N(C)C(=O)CN(C)C(=O)CN(C)C1=O ([NMeChg]I[Sar][Sar][NMeCha][Sar][hPhe(3-Cl-4-CF3)]P[Ac5c][NMeV][NMeD]-Piperidide; lactam N-11)
A: 7.8
